Assay target: Human C5 (Homo sapiens)
Construct: purchased Complement Technology
Sequence (P01031 19-1676): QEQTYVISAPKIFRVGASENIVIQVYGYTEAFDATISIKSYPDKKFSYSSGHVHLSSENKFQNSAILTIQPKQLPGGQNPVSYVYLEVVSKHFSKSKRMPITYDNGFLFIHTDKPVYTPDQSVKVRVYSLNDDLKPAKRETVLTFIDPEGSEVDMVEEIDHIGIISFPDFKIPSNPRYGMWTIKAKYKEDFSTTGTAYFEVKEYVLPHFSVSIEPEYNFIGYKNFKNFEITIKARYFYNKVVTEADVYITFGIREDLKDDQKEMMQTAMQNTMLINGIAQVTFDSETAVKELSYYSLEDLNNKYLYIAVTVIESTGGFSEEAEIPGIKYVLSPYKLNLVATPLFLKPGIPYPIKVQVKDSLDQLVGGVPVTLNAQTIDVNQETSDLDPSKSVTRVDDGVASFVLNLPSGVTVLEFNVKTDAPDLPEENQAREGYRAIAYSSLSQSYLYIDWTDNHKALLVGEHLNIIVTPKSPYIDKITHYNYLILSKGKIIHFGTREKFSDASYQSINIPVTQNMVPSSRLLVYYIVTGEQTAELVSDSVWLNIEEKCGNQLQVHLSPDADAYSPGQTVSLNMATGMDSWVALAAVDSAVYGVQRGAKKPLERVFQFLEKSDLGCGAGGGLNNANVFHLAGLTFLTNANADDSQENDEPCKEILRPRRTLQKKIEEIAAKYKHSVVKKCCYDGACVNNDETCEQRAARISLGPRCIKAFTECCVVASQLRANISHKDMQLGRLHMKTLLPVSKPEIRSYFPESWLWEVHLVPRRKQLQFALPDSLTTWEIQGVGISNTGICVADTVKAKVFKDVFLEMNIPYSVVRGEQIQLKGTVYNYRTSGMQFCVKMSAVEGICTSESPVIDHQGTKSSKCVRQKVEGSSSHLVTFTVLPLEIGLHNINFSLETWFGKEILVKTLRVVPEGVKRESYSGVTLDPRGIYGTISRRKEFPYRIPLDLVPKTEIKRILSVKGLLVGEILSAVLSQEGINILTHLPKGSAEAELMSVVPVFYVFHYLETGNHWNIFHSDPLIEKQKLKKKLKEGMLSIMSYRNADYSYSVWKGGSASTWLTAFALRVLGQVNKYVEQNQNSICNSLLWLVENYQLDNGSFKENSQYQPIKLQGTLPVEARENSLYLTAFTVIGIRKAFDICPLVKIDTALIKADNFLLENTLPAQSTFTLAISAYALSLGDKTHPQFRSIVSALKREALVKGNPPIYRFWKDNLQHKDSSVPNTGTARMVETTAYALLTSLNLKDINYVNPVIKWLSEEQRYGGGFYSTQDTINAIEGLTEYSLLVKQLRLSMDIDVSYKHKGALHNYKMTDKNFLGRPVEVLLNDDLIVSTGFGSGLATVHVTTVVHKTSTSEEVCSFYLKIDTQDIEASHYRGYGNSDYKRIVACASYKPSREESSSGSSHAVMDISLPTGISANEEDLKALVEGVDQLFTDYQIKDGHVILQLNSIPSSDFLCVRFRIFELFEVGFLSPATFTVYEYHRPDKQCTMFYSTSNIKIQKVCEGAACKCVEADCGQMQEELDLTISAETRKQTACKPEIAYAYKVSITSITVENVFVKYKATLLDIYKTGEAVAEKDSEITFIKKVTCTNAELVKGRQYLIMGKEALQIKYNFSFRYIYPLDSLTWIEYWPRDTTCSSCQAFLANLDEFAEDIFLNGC
Experiment notes: Red blood cell (RBC) hemolysis assay, luminescent (Example 13, Table 22); note: 1.5% C5-depleted human serum
Type: cell-based
Conditions: sheep EA cells, […] C5-depleted human serum, 0.5 nM human C5, 1 hour 37° C., luminescence
Reported property: pIC50
Scale: negative log10 of molar concentration, which is what pIC50 denotes.

# Compound, Measured
records = [
    ("COc1ccc(N2CCCN(Cc3cccc4c3ccn4CC(=O)N(C)C)C2=O)cc1OCCCC(C)(F)F", 7.65),
    ("CCCCCOc1cc(N2CCCN(Cc3ccnc4c3ccn4CC(=O)N3CCN(CCOC)CC3)C2=O)ccc1OC", 7.65),
    ("CCCCCOc1cc(N2CCN(Cc3cc(F)ccc3OC)C2=O)ccc1OC", 7.38),
    ("COc1cc(CC(=O)N(C)C)ccc1CN1CCCN(c2ccc(OC)c(OCC[C@@H]3C[C@@H]4CC[C@H]3C4)c2)C1=O", 7.69),
    ("CCCCCOc1cc(N2CCCN(Cc3ccc(CC(=O)N(C)C4CCN(CC)C4)cc3OC)C2=O)ccc1OC (centres unmarked)", 7.68),
    ("COc1cc(CC(=O)N(C)C)ccc1CN1CCCN(c2ccc(OC)c(OCc3ccccc3)c2)C1=O", 6.43),
    ("CCCCCOc1cc(N2CCCN(Cc3ccc(CC(=O)NC4CCN(C(C)=O)C4)cc3Cl)C2=O)ccc1OC (centres unmarked)", 7.79),
    ("CCCCCOc1cc(N2CCCN(Cc3ccc(CC(=O)N4CC(=O)N(C)C(C)C4)cc3OC)C2=O)ccc1OC (centres unmarked)", 7.42),
]

Prompt: Request the reported pIC50 associated with CCCCCOc1cc(N2CCCN(Cc3ccc(CC(N)=O)cc3OC)C2=O)ccc1OC
Completion: 7.70

Prompt: Entry CCCCCOc1cc(N2CCCN(Cc3ccc(CCN4CCCCC4=O)cc3OC)C2=O)ccc1OC : reported pIC50 = ?
Completion: 7.38

Prompt: I'd like to know its pIC50. The compound in question is COc1ccc(N2CCCN(Cc3ccnc4c3ccn4CC(=O)N(C)C)C2=O)cc1OCCCC(F)(F)C(F)(F)F
Completion: 7.20

Prompt: // pIC50 lookup, key: CCCCCOc1cc(N2CCCN(Cc3ccc(F)c(C4=CCNCC4)c3)C2=O)ccc1OC
Completion: 6.96

Prompt: Returns the measured pIC50 for the input compound. Input: CCCCCOc1cc(N2CCCN([C@@H](C)c3ccnc4c3ccn4CC(=O)N3CCOCC3)C2=O)ccc1OC
Completion: 7.48

Prompt: Endpoint output: pIC50 of CCCCCOc1cc(N2CCCN(Cc3ccc(CNC(C)=O)cc3OC)C2=O)ccc1OC . Value?
Completion: 7.63

Prompt: I'd like to know its pIC50. The compound in question is CCCCCOc1cc(N2CCCN(Cc3cccc4c3ccn4CC(=O)NC3CCNC(=O)C3)C2=O)ccc1OC (centres unmarked)
Completion: 8.17

Prompt: Requested field: pIC50. Item: CCC(F)(F)CCOc1cc(N2CCCN(Cc3ccc(CC(=O)N4CCCOCC4)cc3OC)C2=O)ccc1OC
Completion: 7.44

Prompt: Report pIC50 for CCCCCOc1cc(N2CCCN(Cc3ccc(CC#N)cc3OC)C2=O)ccc1OC please.
Completion: 7.48
